Molecular target: Histone-lysine N-methyltransferase EHMT2 (Homo sapiens) (UniProt Q96KQ7)
Sequence (Q96KQ7 913-1193 limits assumed): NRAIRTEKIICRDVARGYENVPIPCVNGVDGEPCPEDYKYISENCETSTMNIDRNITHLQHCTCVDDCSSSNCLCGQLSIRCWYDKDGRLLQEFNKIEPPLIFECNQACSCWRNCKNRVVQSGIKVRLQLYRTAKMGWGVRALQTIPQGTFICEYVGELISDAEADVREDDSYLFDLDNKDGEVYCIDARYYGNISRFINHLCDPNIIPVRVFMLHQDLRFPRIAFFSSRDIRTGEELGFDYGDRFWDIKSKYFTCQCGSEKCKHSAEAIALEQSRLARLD
Test: qHTS Assay for Inhibitors of Histone Lysine Methyltransferase G9a; also: nearly all actives have a fitted effect of over 75% in size
Details: G9a H3K9 monomethylation, AlphaScreen, 2 h; series mostly up to 59 µM
The campaign covered roughly 350,000 compounds. About 31,000 (8.9%) were called active. About 15% were inconclusive and are not listed. Calls follow the shape of the dose curve; as a rule, active = well fitted inhibition curve with a large enough effect; inconclusive = small, poorly fitted or top-dose-only effect; inactive = no such curve, though single readings can be large or run the other way. Shown is part of a subset that was picked to be rich in actives.
Just give me one of these, please: true (1) for active, false (0) for inactive

See these solved cases before continuing.
COCc1nnc(NC(=O)c2ccc3c(c2)OCO3)s1 : false (0)
CCOc1ccc2nc(N3CCCC(C(=O)Nc4cc(C)ccc4C)C3)sc2c1 (stereo not drawn) : false (0)
c1ccc(-c2noc(-c3cccs3)n2)nc1 : false (0)
Oc1ccccc1/C=N/n1c(-c2cccs2)n[nH]c1=S : true (1)
O=C(CN1CCN(c2ccc(O)cc2)CC1)NC1CCCc2ccccc21 (stereo not drawn) : true (1)

Returns: the outcome recorded for Cn1c(SCc2ccc(F)cc2)nnc1-c1ccncc1 in this assay. false (0)

Returns: the outcome recorded for C=Cc1ccc(Cn2c(C(=O)OC)cc3sc(C)cc32)cc1 in this assay. false (0)

* * *

Biological target: Histone-lysine N-methyltransferase EHMT2 (Homo sapiens)
Assay: qHTS Assay for Inhibitors of Histone Lysine Methyltransferase G9a; also: nearly all actives have a fitted effect of over 75% in size; also: potency is read from the fitted curve at half-maximal effect
Conditions: G9a H3K9 monomethylation, AlphaScreen, 2 h; series mostly up to 59 µM
Among all 350,000 compounds or so, about 31,000 (8.9%) were called active. Not shown: some 15% with an inconclusive outcome. This excerpt belongs to a sample that is enriched for actives.
propertyMeasured: Potency

Sample records with Potency:
CCOC(=O)N1CCN(Cc2nc3ccc([N+](=O)[O-])cc3c(=O)n2-c2cccc(OC)c2)CC1 : 39.8 µM (active)
Cc1ccc(-c2nc(CS(=O)(=O)CC(=O)NCc3ccc4c(c3)OCO4)c(C)o2)cc1 : inactive
Cc1nnc(NC(=O)CSc2nccn2-c2cccc(C)c2C)s1 : 50.1 µM (active)
CC(=O)N[C@@H](C)C(=O)N1CCC(n2nccc2NC(=O)CCCc2ccccc2)CC1 : inactive
CNc1ccc(NC(C)=O)cc1[N+](=O)[O-] : inactive
COc1ccc(NC(=O)C(=O)NCC(=O)Nc2cccc(C(F)(F)F)c2)cc1 : inactive
N#CCCN1CCN(S(=O)(=O)c2ccc(S(=O)(=O)N3CCCC3)cc2)CC1 : inactive
Cc1csc(NC(=O)c2ccc(-c3ccc(Cl)cc3Cl)o2)n1 : inactive
COc1cccc(-c2nc(CS(=O)(=O)CC(=O)NCCc3ccc(OC)c(OC)c3)c(C)o2)c1 : inactive
COc1ccc(-c2nc(CS(=O)(=O)CC(=O)NCc3cccc(Br)c3)c(C)o2)cc1 : 44.7 µM (active)

Tested system Histone-lysine N-methyltransferase EHMT2 (Homo sapiens); Potency recorded for CC(C)c1ccc2oc(=O)cc(CN3CCN(Cc4ccccc4)CC3)c2c1 was 50.1 µM (active)

Tested system Histone-lysine N-methyltransferase EHMT2 (Homo sapiens); Potency recorded for N#Cc1cccc(CN2CCC(=O)N(CCO)CC2)c1 was inactive

Tested system Histone-lysine N-methyltransferase EHMT2 (Homo sapiens); Potency recorded for CC1CCN(C(=S)c2ccc(-c3ccc(Cl)cc3Cl)o2)CC1 was 8.91 µM (active)

Tested system Histone-lysine N-methyltransferase EHMT2 (Homo sapiens); Potency recorded for CC(C)(C)c1cc(CN2CCN(CCC#N)CC2)cc(C(C)(C)C)c1O was 17.8 µM (active)

Tested system Histone-lysine N-methyltransferase EHMT2 (Homo sapiens); Potency recorded for Cc1cc2oc(=O)cc(CN3CCN(Cc4ccccc4)CC3)c2cc1C was inactive

Tested system Histone-lysine N-methyltransferase EHMT2 (Homo sapiens); Potency recorded for CCN(C(=O)CSc1nnc(C)n2c1cc1occc12)c1ccccc1 was inactive

Tested system Histone-lysine N-methyltransferase EHMT2 (Homo sapiens); Potency recorded for O=C(COc1ccccc1)OCc1cc(=O)n2nc(-c3cccs3)sc2n1 was inactive

Tested system Histone-lysine N-methyltransferase EHMT2 (Homo sapiens); Potency recorded for COc1ccc(C(CC(=O)Nc2ccc(C)cc2)NC(=O)C(F)(F)F)cc1 (configuration not stated) was 79.4 µM (active)

Tested system Histone-lysine N-methyltransferase EHMT2 (Homo sapiens); Potency recorded for Fc1ccc(COc2ccc(-c3nnco3)cc2)cc1 was inactive

Tested system Histone-lysine N-methyltransferase EHMT2 (Homo sapiens); Potency recorded for Fc1ccc(COc2cccc(-c3n[nH]c(=S)o3)c2)cc1 was 5.01 µM (active)

Tested system Histone-lysine N-methyltransferase EHMT2 (Homo sapiens); Potency recorded for C=CCn1c(SCC(=O)NC)nnc1C12CC3CC(CC(C3)C1)C2 was inactive

Tested system Histone-lysine N-methyltransferase EHMT2 (Homo sapiens); Potency recorded for O=C(C1CC1)N1CCN=C1SCc1ccc(Cl)cc1 was inactive

Data provenance is PubChem BioAssay AID504332.
